# Lookup of reported TGI keyed by entry
Tested on: A498 renal
test details: NCI tumour cell line growth inhibition, 48 h
measurement label: TGI

{"columns": ["entry smiles", "measurement label", "endpoint result"],
 "data": [
  ["CCc1cc2c(Nc3ccccc3)c3c(nc2s1)CCCC3", "TGI", "> 100 µM"],
  ["Cc1c(C(=O)/C=C/c2ccc(Cl)cc2)nnn1-c1ccnc2c(C(F)(F)F)cccc12", "TGI", "> 100 µM"],
  ["Fc1ccc(-c2c(-c3ccncc3)[nH]c3cccnc23)cc1", "TGI", "> 25 µM"],
  ["CCCCNP1(NCCCC)=NP(NCCCC)(NCCCC)=NP(NCCCC)(NCCCC)=NP(NCCCC)(NCCCC)=N1", "TGI", "8.01 µM"],
  ["CCCc1cn2c(/C=N/N=C(N)N)c(-c3ccc([N+](=O)[O-])cc3)nc2s1", "TGI", "10.6 µM"],
  ["CN(C)C[C@@H]1CCn2cc(c3ccccc32)C2=C(C(=O)NC2=O)c2cn(c3ccccc23)CCO1", "TGI", "4.54 µM"],
  ["Cc1cc(=O)n2c(cc3cccccc32)n1", "TGI", "> 100 µM"],
  ["O=c1[nH]c(Br)nc2n[nH]nc12", "TGI", "> 100 µM"],
  ["CSc1nc(SC)c2c(C)c(Br)[nH]c2n1", "TGI", "> 100 µM"],
  ["O=C(Nc1cccc(-n2ccc3c(NC(=O)c4ccccc4)nccc32)c1)c1ccc(Cl)c(Cl)c1", "TGI", "0.735 µM"]
]}

* * *

Property: TGI; scope: individual compounds
Test system: A549 NSCLC
test details: NCI tumour cell line growth inhibition, 48 h

{"columns": ["compound", "TGI"],
 "data": [
  ["CC(C)(C)C1CCC2c3c([nH]c4ccccc34)C3C(=O)N(c4cc(Cl)ccc4Cl)C(=O)C3C2C1 (stereo not given)", "> 100 µM"],
  ["O=C(NCCCN1CCN(CCCNC(=O)c2cc(-c3ccccc3)nc3ccccc23)CC1)c1cc(-c2ccccc2)nc2ccccc12", "48.7 µM"],
  ["COC(=O)c1cc2c([nH]c3ccccc32)c(-c2nc3ccccc3cc2CO)n1", "> 100 µM"],
  ["O=[N+]([O-])c1cc(C(F)(F)F)cc2n[se]nc12", "27 µM"],
  ["COc1cc2c(c(OC)c1)C(=O)C(=O)C(CC1(C)OCCCO1)=C2", "28.3 µM"]
]}

* * *

Test system: NCI-H522 lung
test details: NCI tumour cell line growth inhibition, 48 h
Reported GI50 by item:
measurement label: GI50

{"columns": ["compound", "endpoint result"],
 "data": [
  ["COc1ccc(C(=O)/C=C/c2c(C(F)(F)F)nc3ccccn23)cc1OC", "0.133 µM"],
  ["O=C(Nc1cccc(-n2ccc3c(NC(=O)c4ccccc4)nccc32)c1)c1ccc(Cl)c(Cl)c1", "0.0786 µM"],
  ["Fc1ccc(-c2c(-c3ccncc3)[nH]c3cccnc23)cc1", "> 19.8 µM"],
  ["CCN(CC)CCOc1ccc(NC(=O)C(C(C)C)N2C(=O)/C(=C/c3ccc(Br)cc3)SC2=S)cc1 (stereo not drawn)", "2.03 µM"],
  ["CCOC1Oc2ccccc2C(=O)/C1=C\\Nc1ccc(C(=O)O)c(O)c1 (stereo not drawn)", "> 100 µM"],
  ["CCCCNP1(NCCCC)=NP(NCCCC)(NCCCC)=NP(NCCCC)(NCCCC)=NP(NCCCC)(NCCCC)=N1", "0.287 µM"],
  ["Cc1cnc(-c2ccc(-c3ccc(NC(=O)Nc4cccc(C(F)(F)F)c4)cc3F)c3c2C(=O)NC3)[nH]1", "15.4 µM"],
  ["O=C1/C=C/[C@@H](O)[C@@H]2C[C@@H](O)C[C@H]2/C=C/CCC[C@H](CCc2ccc(NC(=S)Nc3ccc4c(c3)C(=O)OC43c4ccc(O)cc4Oc4cc(O)ccc43)cc2)O1", "1.6 µM"]
]}
